# Test system: SW-620 colon
# method.summary: NCI-60 one-dose screen, 48 h (100 = growth as untreated, 0 = no growth, -100 = all killed)
# conditions: 10 µM unless noted
This is part of a sample that, as a whole, favours compounds with a hit. Of some 83,000 tested, about 20% had one in any assay. Active and inactive are the calls of the source. The calls were made as follows: active = growth percent below 10; inactive = the rest.
quantity.measured: growth

Lookup: Indicate the recorded growth value for this molecule: O=C(c1ccc(O)cc1)C1[C@H](c2ccc(Cl)cc2)[C@@H](c2ccccc2)NC12C(=O)Nc1ccc(Cl)cc12 (some centres undefined)
Found: 40.5% (inactive)

Lookup: Specify growth for COc1ccc([C@@H]2c3[nH]c4ccccc4c3CC3C(=O)N(C4CCN(Cc5c(F)cccc5F)CC4)CC(=O)N32)c(OC)c1 (some centres undefined) and stop.
Found: 64.6% [5.26 µM] (inactive)

Lookup: Given the molecule N#Cc1c(-c2ccc(F)cc2)nc2c(C#N)c(Nc3ccccc3)nn2c1N , write its reported growth.
Found: 106% (inactive)

Lookup: Hello, please tell me recorded growth for this one: C#Cc1nc(C2=C(C)C(O)CC2)cs1 (centres undefined)
Found: 121% (inactive)

Lookup: Return growth for the following molecule: CS(=O)(=O)c1ccc(-c2nc3ccccn3c2C=Nc2ccc(Cl)cc2)cc1
Found: 63% (inactive)

Lookup: Hello, please tell me recorded growth for this one: O=C(O)CCCCCN1C(=O)/C(=C/c2ccc(O)c(O)c2)SC1=S
Found: 111% (inactive)

Lookup: Provide growth value for the following molecule: CCCCN1C(=O)/C(=c2\sc3n(c2=O)C2C(NN=3)N(CC)C(=O)N2CC)c2cc(Cl)ccc21 (centres undefined)
Found: 58.2% (inactive)

Lookup: Give a short answer stating reported growth for Cc1c(NC(=O)CSc2nc3sc4c(c3c(=O)n2-c2ccc(Cl)cc2)CCCC4)c(=O)n(-c2ccccc2)n1C .
Found: 90.6% (inactive)

Lookup: For O=c1[nH]c2ccc(Cl)cc2cc1CSc1ccccc1Nc1nccc(-c2ccc(Cl)cc2)n1 , write its growth.
Found: 91.9% (inactive)
